Each entry below lists one item and its recorded normalized growth value.
Test: chemical genetic growth profiling, strain panel (AID 1159580);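 note: tested at 20 µM; growth read once vehicle control cultures reached saturation at 30 °C; 1 = growth at the plate median or of vehicle wells; lower values mean less growth of the strain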
Details: S. cerevisiae deletion strains, growth OD, locus YDL040C, strain nat1, active compounds read low
The whole screen tested about 5,500 compounds, of which about 2,000 (36%) were called active. Another 18% or so got no clear call; they are omitted. The list shows a part of the results.

Compound | Attribute Measured | Result
CNS(=O)(=O)c1ccc(NC(=O)c2ccccc2C(=O)O)cc1 | normalized growth | 1 (inactive)
CN1CCN(CCC=C2c3ccccc3Sc3ccc(S(=O)(=O)N(C)C)cc32)CC1 | normalized growth | 0.993 (inactive)
CNS(=O)(=O)Cc1ccc2[nH]cc(CCN(C)C)c2c1 | normalized growth | 1.02 (inactive)
CN(C)CCc1c[nH]c2ccc(CS(=O)(=O)N3CCCC3)cc12 | normalized growth | 0.99 (inactive)

Please turn your attention to the following entry.
# query: normalized growth of entry Cc1onc(-c2ccccc2)c1C(=O)NC1C(=O)N2[C@@H]1SC(C)(C)[C@@H]2C(=O)O (stereo not given in full)
1.01 (inactive)
